Task for the reader: assign each of the following compounds its reported inhibition of SARS-CoV-2 cytopathic effect.
system: Vero E6 infected with SARS-CoV-2; experiment: inhibition of SARS-CoV-2 cytopathic effect; higher = more antiviral protection, active = above 15; details: 1 nM; 48 h
Numbers only, in %.

O=C(O)CCCc1c[nH]c2ccccc12
-1.83
FC(F)(F)c1cc(CO[C@H]2CCCN[C@H]2c2ccccc2)cc(C(F)(F)F)c1
0.32
CC1CNc2c(cccc2S(=O)(=O)N[C@@H](CCCNC(=N)N)C(=O)N2CC[C@@H](C)C[C@@H]2C(=O)O)C1 (mixture of isomers)
-2.89
COc1cc(N2CCN(C)CC2)ccc1Nc1nccc(-c2cn(C)c3cnccc23)n1
0.14
CC(=O)OCC(=O)NCCCOc1cccc(CN2CCCCC2)c1 [roxatidine-acetate]
-0.88
N=C(N)c1ccc(-c2ccc(-c3ccc(C(=N)N)cc3)o2)cc1
-2.49
C[C@@H]1O[C@@H](OC[C@H]2O[C@@H](Oc3c(-c4ccc(O)c(O)c4)oc4cc(O)cc(O)c4c3=O)[C@H](O)[C@@H](O)[C@@H]2O)[C@H](O)[C@H](O)[C@H]1O
1.54
CC(C)(Cc1ccc2ccccc2c1)NC[C@@H](O)COc1cccc(Cl)c1C#N
-1.61

Lab note: each compound below needs its inhibition of SARS-CoV-2 cytopathic effect filled in.
1. FC(F)OC(F)(F)C(F)Cl (stereo not given)
2. O=C1c2cccc(O)c2C(=O)c2c(O)cccc21

OUTPUT:
1.24
-2.75

Data credit: the supplement of paper PMC13380429
